Listing of recorded log10 of Kd by entry.
tested-on: T1, PUF4 RNA-binding domain (Saccharomyces cerevisiae, UniProt P25339 537-888)
T1 sequence: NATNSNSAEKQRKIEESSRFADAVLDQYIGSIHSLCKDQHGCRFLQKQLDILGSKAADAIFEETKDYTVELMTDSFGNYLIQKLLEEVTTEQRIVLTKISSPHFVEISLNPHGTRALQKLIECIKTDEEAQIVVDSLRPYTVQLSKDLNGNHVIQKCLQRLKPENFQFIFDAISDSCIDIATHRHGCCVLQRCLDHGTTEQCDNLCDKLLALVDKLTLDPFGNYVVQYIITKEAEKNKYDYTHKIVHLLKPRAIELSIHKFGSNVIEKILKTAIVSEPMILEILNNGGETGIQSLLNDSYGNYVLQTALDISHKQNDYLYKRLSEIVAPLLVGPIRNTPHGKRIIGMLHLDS
assay-text: Mg; RNA-MaP; 20 mM Na-HEPES pH 7.4, 30 mM KOAc, 0.75 mM MgCl2, 0.1% Tween-20, 5% glycerol, 0.1 mg/mL BSA, 2 mM DTT; 25 C; 0.0125-409.6 nM protein
condition-summary: tags: N-His6-TEV cleaved; C-SNAP kept, Cy3B-labelled; label: tethered on chip by stalled RNA polymerase
quantity-kind: log10 of Kd (log10 of the value in µM)

[[record]]
binder = "UCUCUUGCUGUAUAUAAAUCUCUU (ssRNA) [Id_ii_S1_P3E.2_K3.1_C3.2_[C-2G]_[T-1C]_H3.1_A3.1_F3.1_T3.2_[T9A]]"
quantity_kind = "log10 of Kd"
observed_measurement = -1.81

[[record]]
binder = "Id_i_S4_P3E.5_K3.1_C3.3_[T-3C]_[C-2G]_[T-1C]_H3.1_A3.1_F3.1_T3.2 (ssRNA) RNA: UUUGACAACUGAUCGUUCUUUCUCGCUGUAUAUAUAUUCUUUCUCGAUCAGUUGUCUUU"
quantity_kind = "log10 of Kd"
observed_measurement = -2.82

[[record]]
binder = "Ic_S4_P4E.1_K4.1_C4.1_H4.1_A4.1_[T5C]_[A6G]_F4.1_[T8A]_[A9C]_T4.1 (ssRNA) RNA: UUUGACAACUGAUCGUUCUUUCUUGUACGUACUUCUUUCUCGAUCAGUUGUCUUU"
quantity_kind = "log10 of Kd"
observed_measurement = -0.50

[[record]]
binder = "ACAAACUAUAUAAUUAACAAAC (ssRNA) [Ib_S3_P5E.1_K5.1_C5.1_H5.1_[G2A]_A5.1_[T6A]_F5.1_T5.1]"
quantity_kind = "log10 of Kd"
observed_measurement = 0.02

[[record]]
binder = "ACAAACGAUAUAUAUAGUACAAAC (ssRNA) [Id_ii_S3_P3E.3_K3.2_C3.2_[C-2G]_[T-1A]_H3.2_A3.1_F3.1_T3.2_[T9G]_[A10T]]"
quantity_kind = "log10 of Kd"
observed_measurement = -1.21

[[record]]
binder = "Ib_S2_P4E.1_K4.1_C4.1_H4.1_A4.1_[T5G]_[A6T]_F4.1_T4.1 (ssRNA) RNA: UUUGAUUAAUAUGAUAUCGUUCUUUCUUGUAGUUUAUUCUUUCUCGAUAUCAUAUUAAUCUUU"
quantity_kind = "log10 of Kd"
observed_measurement = -2.56

[[record]]
binder = "Id_ii_S2_P5E.3_K5.2_C5.2_[C-2A]_H5.2_A5.1_F5.1_T5.2_[T11G]_[A12C] (ssRNA) RNA: UUUGAUUAAUAUGAUAUCGUUCUUUCUAUUAUAUUAUUAGCUUCUUUCUCGAUAUCAUAUUAAUCUUU"
quantity_kind = "log10 of Kd"
observed_measurement = -0.12

[[record]]
binder = "UCUCUUUGUAUCUAUCUCUU (ssRNA) [Ic_S1_P3E.1_K3.1_C3.1_H3.1_A3.1_[A6C]_F3.1_T3.1]"
quantity_kind = "log10 of Kd"
observed_measurement = -1.31

[[record]]
binder = "UCUCUUUAUAUUAUAAUCUCUU (ssRNA) [Ib_S1_P5E.1_K5.1_C5.1_H5.1_[G2A]_A5.1_F5.1_[T9A]_T5.1]"
quantity_kind = "log10 of Kd"
observed_measurement = -0.91

[[record]]
binder = "UCUCUUCUUGUAUAUAUCCUAUCUCUU (ssRNA) [Ie_S1_P3E.2_K3.1_C3.2_H3.1_A3.1_F3.1_[+8TCC]_T3.2]"
quantity_kind = "log10 of Kd"
observed_measurement = -1.99

[[record]]
binder = "Ic_S4_P5E.1_K5.1_C5.1_H5.1_A5.1_[T5A]_[A7T]_F5.1_[T9C]_[A10T]_T5.1 (ssRNA) RNA: UUUGACAACUGAUCGUUCUUUCUUGUAAUUUCUUUCUUUCUCGAUCAGUUGUCUUU"
quantity_kind = "log10 of Kd"
observed_measurement = -1.48

